System: healthy females and males
ASSAY PROCEDURE: Human patch test
Format: in vivo
TEST PARAMETERS: 1% in patch base, n = 30, 24 hours later, grade 1
MEASURED ENDPOINT: Number of the subjected showing response, 24 hours later, ± (Mild erythema)
Answer with a number only.

Example results:
SMILES STRUCTURE	RECORDED RESULT
O=c1cc(/C=C/c2ccc3c(c2)OCO3)occ1O	0
O=c1cc(/C=C/c2ccc3c(c2)OCCO3)occ1O	0
O=C(Oc1cc(=O)c(O)co1)c1ccc2c(c1)OCCO2	0
O=C(/C=C/c1ccc2c(c1)OCCO2)COc1cc(=O)c(O)co1	1

Form: molecule = O=C(OCc1cc(=O)c(O)co1)c1ccc2c(c1)OCO2 ; Number of the subjected showing response, 24 hours later, ± (Mild erythema) = 2

---

Tested on: healthy females and males
ASSAY PROCEDURE: Human patch test
Format: in vivo
TEST PARAMETERS: 1% in patch base, n = 30, 48 hours later, grade 1
Protocol: This test was performed for thirty (30) healthy females and males aged on average 24.8 years and having no experience of hypersensitivity, according to method of CTFA Guideline (The Cosmetic, Toiletry and Fragrance Association. Inc. Washington, D.C., 20023, 1991). […] The average response of Table 8 was calculated by the following equation 4. […]
Listed below: Number of the subjected showing response, 48 hours later, ± (Mild erythema) values for each entry.

Field Number of the subjected showing response, 48 hours later, ± (Mild erythema) (system: healthy females and males) for entry O=C(/C=C/c1ccc2c(c1)OCCO2)COc1cc(=O)c(O)co1 = 0

---

Test system: healthy females and males
ASSAY PROCEDURE: Human patch test
Type: in vivo
TEST PARAMETERS: 1% in patch base, calculated by equation 4; below 1 = no irritation
Listed below: Average Response (n = 30) values for each entry.

Example results:
MOLECULE	MEASURED ENDPOINT	RECORDED RESULT
O=C(OCc1cc(=O)c(O)co1)c1ccc2c(c1)OCO2 [Compound of Ex. 1]	Average Response (n = 30)	0.83
O=c1cc(/C=C/c2ccc3c(c2)OCCO3)occ1O [Compound of Ex. 6]	Average Response (n = 30)	0.00
O=C(/C=C/c1ccc2c(c1)OCCO2)COc1cc(=O)c(O)co1 [Compound of Ex. 4]	Average Response (n = 30)	0.42
O=C(Oc1cc(=O)c(O)co1)c1ccc2c(c1)OCCO2 [Compound of Ex. 2]	Average Response (n = 30)	0.42

Field Average Response (n = 30) (system: healthy females and males) for entry O=c1cc(/C=C/c2ccc3c(c2)OCO3)occ1O [Compound of Ex. 5] = 0.00

---

Tested on: healthy females and males
ASSAY PROCEDURE: Human patch test
Format: in vivo
TEST PARAMETERS: 1% in patch base, n = 30, 48 hours later, grade 0
MEASURED ENDPOINT: Number of the subjected showing response, 48 hours later, − (No visible response)
Answer with a number only.

Example results:
SMILES STRUCTURE	RECORDED RESULT
O=C(OCc1cc(=O)c(O)co1)c1ccc2c(c1)OCO2	30
O=c1cc(/C=C/c2ccc3c(c2)OCCO3)occ1O	30
O=C(/C=C/c1ccc2c(c1)OCCO2)COc1cc(=O)c(O)co1	30
O=C(Oc1cc(=O)c(O)co1)c1ccc2c(c1)OCCO2	29

Now consider a different compound.
Form: compound = O=c1cc(/C=C/c2ccc3c(c2)OCO3)occ1O ; Number of the subjected showing response, 48 hours later, − (No visible response) = 30
